# TEST SYSTEM: human recombinant Btk (Homo sapiens, UniProt Q06187)
# Construct: purchased Invitrogen Corporation
# Sequence (Q06187 whole entry): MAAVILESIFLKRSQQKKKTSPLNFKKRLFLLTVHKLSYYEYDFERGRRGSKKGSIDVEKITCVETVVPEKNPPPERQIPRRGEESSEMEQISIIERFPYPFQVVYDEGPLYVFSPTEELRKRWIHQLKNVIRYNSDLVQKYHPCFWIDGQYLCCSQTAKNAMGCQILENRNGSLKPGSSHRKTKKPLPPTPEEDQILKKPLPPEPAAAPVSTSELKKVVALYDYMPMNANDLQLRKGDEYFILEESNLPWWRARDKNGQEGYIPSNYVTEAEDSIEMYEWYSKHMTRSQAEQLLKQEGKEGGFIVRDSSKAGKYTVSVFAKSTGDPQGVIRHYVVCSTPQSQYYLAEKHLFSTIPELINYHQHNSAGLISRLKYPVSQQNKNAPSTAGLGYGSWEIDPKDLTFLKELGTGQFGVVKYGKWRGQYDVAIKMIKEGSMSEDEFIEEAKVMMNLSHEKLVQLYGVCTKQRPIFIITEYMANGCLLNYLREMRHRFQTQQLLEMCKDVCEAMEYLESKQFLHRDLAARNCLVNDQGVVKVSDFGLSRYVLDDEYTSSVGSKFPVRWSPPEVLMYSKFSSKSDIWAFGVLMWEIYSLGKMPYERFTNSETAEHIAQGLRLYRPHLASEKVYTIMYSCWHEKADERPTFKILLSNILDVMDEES
# MEASUREMENT NOTES: Human Recombinant Btk Enzyme Assay
# Assay type: biochemical
# STUDY CONDITIONS: human recombinant Btk 1 nM, ATP 20 μM, 60 min room temperature, Caliper LabChip
MEASUREMENT LABEL: IC50 (µM)

- MOLECULE: "O=C(N[C@@H]1CCCN(c2nc(Nc3ccc(C(=O)N4CCOCC4)cc3)c3nccn3n2)C1)OCc1ccccc1"
  TEST SYSTEM: "human recombinant Btk (Homo sapiens, UniProt Q06187)"
  MEASUREMENT LABEL: "IC50"
  ASSAY RESULT: 0.2

P: CC(C)(C)c1ccc(C(=O)N[C@@H]2CCCN(c3nc(Nc4ccc(C(=O)N5CCNCC5)cc4)c4nccn4n3)C2)cc1
Q: CC(C)(C)c1ccc(C(=O)N[C@@H]2CCCN(c3nc(Nc4ccc(C(=O)N5CC(O)C5)cc4)c4nccn4n3)C2)cc1
R: CCOc1ccc(Nc2nc(N[C@H]3CC[C@H](N)CC3)nn3ccnc23)cc1 [XIII in US 2007/0078136, reference compound]
[in] Rank descending by IC50. Answer with the labels in sequence, matching the requested order.
[out] R, Q, P

1: CC(C)(C)c1ccc(C(=O)N[C@@H]2CCCN(c3nc(Nc4ccc(C(=O)N5CCOCC5)cc4)c4ncc(C#N)n4n3)C2)cc1
2: Nc1cnc2c(Nc3ccc(C(=O)N4CCOCC4)cc3)nc(N3CCC[C@@H](NC(=O)c4cc5ccccc5[nH]4)C3)nn12
3: CC(C)(C)c1ccc(C(=O)N[C@H]2CCCN(c3nc(Nc4ccc(C(=O)N5CCOCC5)cc4)c4nccn4n3)C2)cc1
4: N[C@H]1CC[C@H](Nc2cc(Nc3ccc4ccccc4n3)c3nccn3n2)CC1 [I(159) in US 2008/0045536, reference compound]
[in] Rank descending by IC50. Answer with the labels in sequence, matching the requested order.
[out] 3, 4, 1, 2

* * *

compounds and their reported IC50
# Test system: Mouse splenic B cells
# MEASUREMENT NOTES: Mouse Splenic B Cell Proliferation Assay
# Type: cell-based
# STUDY CONDITIONS: Balb/c splenic B cells stimulated with anti-mouse IgG IgM F(ab')2 10 μg/ml, 72 hours, 3[H]-thymidine
# Protocol: Mouse Splenic B Cell Proliferation Assay Spleens from Balb/c mice (<12 weeks old) were mashed through screens and red blood cells were removed from splenocytes with RBC lysing buffer (Sigma-Aldrich Chemical Co, —St. Louis, Mo.). T cells were depleted by incubation on nylon wool columns (Wako, Richmond, Va.). Resulting splenic B cells prepared this way were routinely >90% CD19^+ as measured by FACS analysis. […]
Dear colleague, please return just the value in µM, with no unit written.

Worked set:
- COMPOUND: "CC(C)(C)c1ccc(C(=O)N[C@@H]2CCCN(c3nc(Nc4ccc(C(=O)N[C@@H]5CCNC5)cc4)c4nccn4n3)C2)cc1 [Example 9]"
  IC50 [µM]: 1.29
- COMPOUND: "CC(C)(C)c1ccc(C(=O)N[C@@H]2CCCN(c3nc(Nc4ccc(C(=O)N5CCOCC5)cc4)c4ncc(N)n4n3)C2)cc1 [Example 26]"
  IC50 [µM]: 0.08

// field: IC50; key: CC(C)(C)c1ccc(C(=O)N[C@@H]2CCCN(c3nc(Nc4ccc(C(N)=O)cc4)c4nccn4n3)C2)cc1 [Example 10] ; value = 0.33

// field: IC50; key: CC(C)(C)c1ccc(C(=O)N[C@@H]2CCCN(c3nc(Nc4ccc(C(=O)N5CCOCC5)cc4)c4ncc(C#N)n4n3)C2)cc1 [Example 32] ; value = 0.31

// field: IC50; key: NC(=O)c1cnc2c(Nc3ccc(C(=O)N4CCOCC4)cc3)nc(N3CCC[C@@H](NC(=O)c4ccccc4)C3)nn12 [Example 30] ; value = 0.98

The measured values listed here are drawn from patent US8188272B2.
